Target: Glutamate NMDA receptor
Test: Displacement of [3H]CGP39653 from NMDA receptor in rat cortical synaptosomes
pKi: −log10 of the molar value.
property measured: pKi

[[record]]
smi = "CCC[C@]1(C(=O)O)C[C@H]1[C@H](N)C(=O)O"
property_measured = "pKi"
reported_measurement = 5.92

[[record]]
smi = "CC[C@]1(C(=O)O)C[C@H]1[C@H](N)C(=O)O"
property_measured = "pKi"
reported_measurement = 7.21

[[record]]
smi = "N[C@H](C(=O)O)[C@@H]1C[C@@H]1C(=O)O"
property_measured = "pKi"
reported_measurement = 8.19

[[record]]
smi = "C[C@]1(C(=O)O)C[C@H]1[C@H](N)C(=O)O"
property_measured = "pKi"
reported_measurement = 8.10

[[record]]
smi = "CCCc1cnn(O)c1[C@@H](N)C(=O)O"
property_measured = "pKi"
reported_measurement = 4.85

[[record]]
smi = "CCCC[C@]1(C(=O)O)C[C@H]1[C@H](N)C(=O)O"
property_measured = "pKi"
reported_measurement = 5.89


----------
Target: Glutamate NMDA receptor; Grin1/Grin2b (Rattus norvegicus) (UniProt P35439+Q00960)
Assay: Ratio of compound Imax to glutamate Imax for rat recombinant wild type GluN1/GluN2B receptor
Assay type: protein-complex assay
Some compounds, each annotated with its measured Ratio.
property measured: Ratio

[[record]]
compound = "N[C@H](C(=O)O)[C@@H]1C[C@@H]1C(=O)O"
reported_measurement = 1.23

[[record]]
compound = "CCC[C@]1(C(=O)O)C[C@H]1[C@H](N)C(=O)O"
reported_measurement = 1.05

[[record]]
compound = "CCCC[C@]1(C(=O)O)C[C@H]1[C@H](N)C(=O)O"
reported_measurement = 1.07

[[record]]
compound = "NC(C(=O)O)c1ccnn1O (racemic)"
reported_measurement = 0.58

[[record]]
compound = "CC[C@]1(C(=O)O)C[C@H]1[C@H](N)C(=O)O"
reported_measurement = 1.02

[[record]]
compound = "CCCc1cnn(O)c1[C@@H](N)C(=O)O"
reported_measurement = 0.06

[[record]]
compound = "C[C@]1(C(=O)O)C[C@H]1[C@H](N)C(=O)O"
reported_measurement = 1.14


----------
Some molecules, each annotated with its measured Ki.
Test: Displacement of [3H]AMPA from AMPA receptor in rat cortical synaptosomes
Assay type: subcellular, Brain
property measured: Ki

[[record]]
molecule = "C[C@]1(C(=O)O)C[C@H]1[C@H](N)C(=O)O"
property_measured = "Ki"
reported_measurement = "29 µM"

[[record]]
molecule = "CC[C@]1(C(=O)O)C[C@H]1[C@H](N)C(=O)O"
property_measured = "Ki"
reported_measurement = "> 100 µM"

[[record]]
molecule = "CCC[C@]1(C(=O)O)C[C@H]1[C@H](N)C(=O)O"
property_measured = "Ki"
reported_measurement = "> 100 µM"

[[record]]
molecule = "NC(C(=O)O)c1ccnn1O (racemic)"
property_measured = "Ki"
reported_measurement = "> 100 µM"

[[record]]
molecule = "CCCc1cnn(O)c1[C@@H](N)C(=O)O"
property_measured = "Ki"
reported_measurement = "> 100 µM"

[[record]]
molecule = "N[C@H](C(=O)O)[C@@H]1C[C@@H]1C(=O)O"
property_measured = "Ki"
reported_measurement = "1.1 µM"

[[record]]
molecule = "CCCC[C@]1(C(=O)O)C[C@H]1[C@H](N)C(=O)O"
property_measured = "Ki"
reported_measurement = "> 100 µM"

